- assay_comment: Cmax in ferrets after 30 mg/kg oral dose
- Type: ADME, organism-based, Mustela putorius furo
- Parameters: dose 30 mg/kg, route oral
- measurement_context: ferret, in vivo
experimental_readout: Cmax (µM)
Enter your answer as a number in µM; do not include the unit.

Exam item: What value of Cmax has been reported for the following compound? [O-][n+]1ccc(CC(c2ccc(C(O)(C(F)(F)F)C(F)(F)F)cc2)c2ccc(OC(F)F)c(OC(F)F)c2)cc1 (stereo unspecified)
Marked response: 16

----------
- measurement_target: UniProt P27815
- assay_comment: Inhibitory activity against human PDE4A expressed isoform using construct representing the common region of spliced variants as GST-fusion protein in Sf9 cells.
pIC50: −log10 of the molar value.
Use 8 as the dividing line for pIC50, with the line itself on the criterion met side and lower values as criterion not met.

Exam item: For this compound, is measured pIC50 8 or higher? CC(C)(Nc1ccc(C(Cc2cc[n+]([O-])cc2)c2ccc(OC(F)F)c(OC(F)F)c2)cn1)c1ccccc1 (stereo in doubt; 3n)
Marked response: criterion met

Exam item: Would you say CN(c1ccccc1)c1ccc(C(Cc2cc[n+]([O-])cc2)c2ccc(OC(F)F)c(OC(F)F)c2)cn1 (stereo not drawn) shows pIC50 at minimum 8?
Marked response: criterion met

Exam item: Threshold query (pIC50 >= 8) on CN(CCc1ccccc1)c1ccc(C(Cc2cc[n+]([O-])cc2)c2ccc(OC(F)F)c(OC(F)F)c2)cn1 (stereo not drawn)
Marked response: criterion met

Exam item: API: above_or_equal(metric=pIC50, cutoff=8) for item Nc1ccc(C(Cc2cc[n+]([O-])cc2)c2ccc(OC(F)F)c(OC(F)F)c2)cn1 (stereo not drawn)
Marked response: criterion not met

Exam item: Can CC(=O)Nc1ccc(C(Cc2cc[n+]([O-])cc2)c2ccc(OC(F)F)c(OC(F)F)c2)cn1 (stereo not drawn) be said to have pIC50 at or above 8?
Marked response: criterion not met

Exam item: Tell me whether pIC50 is at least 8 here: Cc1c[n+]([O-])ccc1CC(c1ccc(C(O)(C(F)(F)F)C(F)(F)F)cc1)c1ccc(OC(F)F)c(OC(F)F)c1 (stereo not drawn)
Marked response: criterion met

Exam item: decide whether the reported pIC50 for [O-][n+]1ccc(CC(c2ccc(C(O)(C(F)(F)F)C(F)(F)F)cc2)c2ccc(OC(F)F)c(OC(F)F)c2)cc1 (stereo not drawn) is at least 8.
Marked response: criterion met

----------
- assay_comment: Cmax in rats after 20 mg/kg oral dose
- Format: ADME, organism-based
- Parameters: dose 20 mg/kg, route oral
- measurement_context: rat, in vivo
Consider the following compounds; for each one, report its Cmax.
Numeric only. Scale: nM

Exam item: So what does the record say about Cmax for [O-][n+]1ccc(CC(c2ccc(C(O)(C(F)(F)F)C(F)(F)F)cc2)c2ccc(OC(F)F)c(OC(F)F)c2)cc1 (configuration not stated) ?
Marked response: 3500

Exam item: So what's the measured Cmax for this one? CC(C)(Nc1ccc(C(Cc2cc[n+]([O-])cc2)c2ccc(OC(F)F)c(OC(F)F)c2)cn1)c1ccccc1 (single isomer, unassigned; (-))
Marked response: 2400

----------
- measurement_target: 3',5'-cyclic-AMP phosphodiesterase 4A (Homo sapiens, UniProt P27815)
- Sequence (P27815 whole entry, looked up, stated change not applied, the tested form may be a part, canonical isoform): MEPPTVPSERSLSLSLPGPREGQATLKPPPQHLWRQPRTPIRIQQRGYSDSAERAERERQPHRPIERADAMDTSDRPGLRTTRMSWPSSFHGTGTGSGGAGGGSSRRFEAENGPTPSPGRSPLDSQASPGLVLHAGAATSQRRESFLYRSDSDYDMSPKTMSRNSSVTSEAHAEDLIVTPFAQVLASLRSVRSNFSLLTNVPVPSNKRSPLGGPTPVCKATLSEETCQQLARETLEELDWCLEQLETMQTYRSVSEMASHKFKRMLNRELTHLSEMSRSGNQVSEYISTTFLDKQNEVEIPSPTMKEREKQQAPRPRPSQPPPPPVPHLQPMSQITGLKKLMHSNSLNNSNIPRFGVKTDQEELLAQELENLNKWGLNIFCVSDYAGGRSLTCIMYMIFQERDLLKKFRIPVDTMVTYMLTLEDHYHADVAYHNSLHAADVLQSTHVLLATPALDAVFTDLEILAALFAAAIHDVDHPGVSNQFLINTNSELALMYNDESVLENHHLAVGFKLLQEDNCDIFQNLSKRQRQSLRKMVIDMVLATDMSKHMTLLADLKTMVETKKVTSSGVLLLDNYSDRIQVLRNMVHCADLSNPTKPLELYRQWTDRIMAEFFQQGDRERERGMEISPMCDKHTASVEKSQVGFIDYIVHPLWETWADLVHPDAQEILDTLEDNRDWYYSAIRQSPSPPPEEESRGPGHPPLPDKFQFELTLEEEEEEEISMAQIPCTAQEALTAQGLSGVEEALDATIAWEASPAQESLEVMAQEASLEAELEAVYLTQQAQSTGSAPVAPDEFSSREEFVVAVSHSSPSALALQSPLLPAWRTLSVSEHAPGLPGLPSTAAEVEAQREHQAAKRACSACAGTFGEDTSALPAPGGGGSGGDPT
- assay_comment: Inhibitory activity against human PDE4A expressed isoform using construct representing the common region of spliced variants as GST-fusion protein in Sf9 cells.
pIC50: −log10 of the molar value.
Class key for pIC50 values: label 0 (below 8), label 1 (8 to below 9), label 2 (9 or more)

Exam item: Hello team, could you let me know which band the following compound falls into: CC(C)(Nc1ccc(C(Cc2cc[n+]([O-])cc2)c2ccc(OC(F)F)c(OC(F)F)c2)cn1)c1ccccc1 (stereo in doubt; (+)-3n)
Marked response: label 0

Exam item: Field: class (pIC50) — entry: [O-][n+]1ccc(CC(c2ccc(N3CCCC3)nc2)c2ccc(OC(F)F)c(OC(F)F)c2)cc1 (stereo unspecified)
Marked response: label 0

Exam item: Into which category would you place Cc1ccc(CCNc2ccc(C(Cc3cc[n+]([O-])cc3)c3ccc(OC(F)F)c(OC(F)F)c3)cn2)cc1 (stereo unspecified) ?
Marked response: label 1

Exam item: Field: class (pIC50) — entry: CC(C)(C)N(Cc1ccccc1)c1ccc(C(Cc2cc[n+]([O-])cc2)c2ccc(OC(F)F)c(OC(F)F)c2)cn1 (stereo unspecified)
Marked response: label 0

Exam item: Consider C[C@H](c1ccccc1)N(C)c1ccc(C(Cc2cc[n+]([O-])cc2)c2ccc(OC(F)F)c(OC(F)F)c2)cn1 (stereo partly specified) . To which pIC50 class does it belong?
Marked response: label 2

Exam item: Hi, small favor: classify CCN(Cc1ccccc1)c1ccc(C(Cc2cc[n+]([O-])cc2)c2ccc(OC(F)F)c(OC(F)F)c2)cn1 (stereo unspecified) by its pIC50 when you get a moment.
Marked response: label 1

Each recorded value in this set is attributed to ChEMBL document CHEMBL1136601.
